# Subject of test: Btk (Homo sapiens, UniProt Q06187)
# Sequence (Q06187 whole entry): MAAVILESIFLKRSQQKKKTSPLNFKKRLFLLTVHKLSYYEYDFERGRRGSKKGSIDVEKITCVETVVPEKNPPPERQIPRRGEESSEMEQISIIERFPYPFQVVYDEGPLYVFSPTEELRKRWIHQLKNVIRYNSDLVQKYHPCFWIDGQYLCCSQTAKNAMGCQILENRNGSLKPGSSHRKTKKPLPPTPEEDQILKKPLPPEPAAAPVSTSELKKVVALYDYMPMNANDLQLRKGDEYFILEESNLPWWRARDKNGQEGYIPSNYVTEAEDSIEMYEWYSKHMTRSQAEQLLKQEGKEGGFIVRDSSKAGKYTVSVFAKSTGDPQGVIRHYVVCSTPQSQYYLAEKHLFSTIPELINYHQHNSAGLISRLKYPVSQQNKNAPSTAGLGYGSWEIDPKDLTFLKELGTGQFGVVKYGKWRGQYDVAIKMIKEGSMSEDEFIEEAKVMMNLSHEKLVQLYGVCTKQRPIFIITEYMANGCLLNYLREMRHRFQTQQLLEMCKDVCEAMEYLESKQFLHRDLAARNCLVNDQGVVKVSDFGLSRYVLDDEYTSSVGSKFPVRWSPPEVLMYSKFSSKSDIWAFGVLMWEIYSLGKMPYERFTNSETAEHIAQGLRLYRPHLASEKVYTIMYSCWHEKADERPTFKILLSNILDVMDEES
# Assay: Btk kinase activity, TR-FRET assay
# Assay type: biochemical
# Measurement conditions: read-out: Btk (IC50)
Value kind: IC50

{"columns": ["Compound string", "Assay result"],
 "data": [
  ["CN(C/C=C/C(=O)N1CC[C@@H](Nc2n[nH]c3nccc(Oc4ccc(C(=O)Nc5ncccn5)cc4)c23)C1)C1CC1", "100 to 1000 nM"],
  ["CN(C)c1ccnc(NC(=O)c2ccc(Oc3ccnc4[nH]nc(N[C@@H]5CCN(C(=O)/C=C/CN(C)C6CC6)C5)c34)cc2)c1", "< 100 nM"],
  ["CN(C)C/C=C/C(=O)N1CC[C@@H](Nc2n[nH]c3nccc(Oc4ccn(Cc5ccccc5)c(=O)c4)c23)C1", "100 to 1000 nM"]
]}

Sample CCC(=O)N1CCC[C@@H](Nc2n[nH]c3nccc(Oc4ccc(-c5nc6cccc(C)c6o5)cc4)c23)C1 ; IC50 observed: > 10000 nM

Sample Cc1cc(NC(=O)c2cccc(Oc3ccnc4[nH]nc(N[C@H]5CCN(C(=O)c6ccc(F)cc6)C5)c34)c2)ccc1C(C)C ; IC50 observed: 100 to 1000 nM

Sample CN(C)C/C=C/C(=O)N1CCC[C@@H](Nc2n[nH]c3nccc(Oc4cccc(Oc5ccccc5)c4)c23)C1 ; IC50 observed: < 100 nM

Sample C=CC(=O)N1CCC[C@@H](Nc2n[nH]c3nccc(Oc4ccc(C(=O)Nc5nc6c(s5)CCN(C)C6)cc4)c23)C1 ; IC50 observed: < 100 nM
